Target: full-length beta-Catenin (Uniprot ID P35222) (Homo sapiens)
Construct: 10 nM full-length beta-Catenin (Uniprot ID P35222)
Sequence (P35222 1-781): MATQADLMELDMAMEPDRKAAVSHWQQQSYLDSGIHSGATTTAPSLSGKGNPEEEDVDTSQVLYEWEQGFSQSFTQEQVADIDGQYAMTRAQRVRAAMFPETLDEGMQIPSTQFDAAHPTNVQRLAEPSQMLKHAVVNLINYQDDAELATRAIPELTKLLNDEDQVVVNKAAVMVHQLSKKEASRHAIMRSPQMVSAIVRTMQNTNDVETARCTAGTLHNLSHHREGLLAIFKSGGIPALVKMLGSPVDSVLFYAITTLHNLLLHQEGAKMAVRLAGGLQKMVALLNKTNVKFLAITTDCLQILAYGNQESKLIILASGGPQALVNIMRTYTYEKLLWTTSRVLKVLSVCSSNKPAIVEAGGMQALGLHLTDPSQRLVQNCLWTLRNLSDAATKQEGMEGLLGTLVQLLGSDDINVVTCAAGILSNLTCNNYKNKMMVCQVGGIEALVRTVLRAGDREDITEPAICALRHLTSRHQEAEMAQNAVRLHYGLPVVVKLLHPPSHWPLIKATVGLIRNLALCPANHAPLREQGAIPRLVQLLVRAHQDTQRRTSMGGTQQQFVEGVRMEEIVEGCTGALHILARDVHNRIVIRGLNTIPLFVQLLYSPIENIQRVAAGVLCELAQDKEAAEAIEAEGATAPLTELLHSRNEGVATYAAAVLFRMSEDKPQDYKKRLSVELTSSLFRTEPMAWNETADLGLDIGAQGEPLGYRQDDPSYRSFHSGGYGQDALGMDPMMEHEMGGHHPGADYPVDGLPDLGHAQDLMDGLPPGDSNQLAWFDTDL
Test: Fluorescence polarization IC50 (beta-catenin / 5FAM-TCF4 10-53 competition)
Format: binding
Settings: fluorescence polarization; read-out: beta-Catenin FP IC50
pIC50: −log10 of the molar value.

MOLECULE: CC(=O)N1CCC[C@]12CC=CCCCC1(CCCC=CCCCOC(=O)N3CC[C@@](C(=O)N[C@@H](Cc4ccsc4)C(=O)N[C@@H](Cc4csc5ccccc45)C(=O)N[C@@H](CCC(N)=O)C(N)=O)(C3)NC(=O)[C@H](CCO)NC(=O)[C@H](Cc3ccccc3)NC(=O)[C@H](C)NC(=O)[C@H](C)NC(=O)[C@H](Cc3c[nH]cn3)NC(=O)[C@H](CC(=O)O)NC1=O)NC(=O)[C@H](CC(C)(C)C)NC(=O)[C@H](CC(=O)O)NC2=O (some centres unmarked) [I-1794]
pIC50: 7.28
//
MOLECULE: CC(=O)N1CCC[C@]12CC=CCCCC1(CCCC=CCCCOC(=O)N3CC[C@@](C(=O)N[C@@H](Cc4ccccc4Cl)C(=O)N[C@@H](Cc4csc5ccccc45)C(=O)N[C@@H](CCC(N)=O)C(N)=O)(C3)NC(=O)[C@H](CC(C)C)NC(=O)[C@H](Cc3ccccc3)NC(=O)[C@H](C)NC(=O)[C@H](C)NC(=O)[C@H](Cc3ccccc3C(=O)O)NC(=O)[C@H](CC(=O)O)NC1=O)NC(=O)[C@H](CC(C)(C)C)NC(=O)[C@H](CC(=O)O)NC2=O (some centres unmarked)
pIC50: 7.72
//
MOLECULE: CC(=O)N1CCC[C@]12CC=CCCCC1(CCCC=CCCCCCC[C@@](C)(C(=O)N[C@@H](Cc3ccccc3)C(=O)N[C@@H](Cc3csc4ccccc34)C(=O)N[C@@H](CCC(N)=O)C(N)=O)NC(=O)[C@H](CC(N)=O)NC(=O)[C@H](Cc3ccccc3)NC(=O)[C@H](C)NC(=O)[C@H](C)NC(=O)[C@H](CCC(=O)O)NC(=O)[C@H](CC(=O)O)NC1=O)NC(=O)[C@H](CC(C)C)NC(=O)[C@H](CC(=O)O)NC2=O (some centres unmarked) [I-577]
pIC50: 7.89
//
MOLECULE: CC(=O)N1CCC[C@]12CC=CCCCC1(CCCC=CCCCOC(=O)N3CC[C@@](C(=O)N[C@@H](Cc4ccsc4)C(=O)N[C@@H](Cc4csc5ccccc45)C(=O)N[C@H](C(N)=O)C(C)C)(C3)NC(=O)[C@H](CC(C)C)NC(=O)[C@H](Cc3ccccc3)NC(=O)[C@H](C)NC(=O)[C@H](CO)NC(=O)[C@H](Cc3cccc(C(=O)O)c3)NC(=O)[C@H](CC(=O)O)NC1=O)NC(=O)[C@H](CC(C)(C)C)NC(=O)[C@H](CC(=O)O)NC2=O (some centres unmarked)
pIC50: 7.55
//
MOLECULE: CC(=O)N1CCC[C@]12CC=CCCCC1(CCCC=CCOC(=O)N(C)CC[C@@](C)(C(=O)N[C@@H](Cc3ccsc3)C(=O)N[C@@H](Cc3csc4ccccc34)C(=O)N[C@@H](CCC(N)=O)C(N)=O)NC(=O)[C@H](CC(C)C)NC(=O)[C@H](Cc3ccccc3)NC(=O)[C@H](C)NC(=O)[C@H](C)NC(=O)[C@H](CC(=O)O)NC(=O)[C@H](CC(=O)O)NC1=O)NC(=O)[C@H](CC(C)(C)C)NC(=O)[C@H](CC(=O)O)NC2=O (some centres unmarked)
pIC50: 6.50
